Reference source for all entries: the supplement of paper PMC10567573

Provide the recorded protein stability index for the entries that follow.
B1: PSD2 (parent)
chain: LTHFSRRYCQCNPDDSTSEDGIHT

- Variants of: B1
- assay-procedure: protein stability index of a GFP-peptide fusion (GPS, HEK-293T) (PSI 1-6); higher = more stable;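 note: lentivirally expressed fusions sorted by FACS into six bins by GFP to DsRed ratio, PSI derived from sequencing read proportions per bin multiplied by bin number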
- details: c terminus: a fixed tail appended
Output spec: single numeric token, no unit.

Which protein stability index is listed for `H23M` ? 3.82

Would you mind telling me what protein stability index value was observed for `L1W` ? 3.36

# input variant: `I22M` ; wanted: its protein stability index 3.49

Recorded protein stability index for `T2N` , please? 3.74

Please look up its protein stability index: `T24V` 3.36

Look up protein stability index: `R7H` 3.8

Give its protein stability index value. Item: `L1C` 3.89

Requested field: protein stability index. Item: `D14E` 3.02

Quick one: protein stability index of `S16A` ? 2.57

// lookup protein stability index for `P13R` 3.19

Given `G21V` , state its recorded protein stability index. 2.79

Dear colleague, I am looking for the recorded protein stability index of the following variant: `Q10P` 3.41

Fill blank: measured protein stability index of the variant `H23W` is ____. 2.62

Report protein stability index for `T2V` please. 2.24

Entry under review: `F4G` . Reported protein stability index? 4.57

Need protein stability index of `T2L` , thanks. 2.41

May I ask what protein stability index has been recorded for `F4D` ? 3.57

I would be grateful if you could share the reported protein stability index for `L1G` . 3.79

What value of measured protein stability index is listed for `I22D` ? 4.27

Recorded protein stability index for `S5P` , please? 3.4

Recorded protein stability index for `S5N` , please? 3.69

Which measured protein stability index value corresponds to `H3L` ? 2.96
